Where do these numbers come from? They come from paper PMC5286520.

- target: V2R (Homo sapiens), P30518
- measurement-description: radioligand
- particulars: modification not given
pKi: −log10 of the molar value.
observed-property: pKi

Notebook: CLITNCPRG [inotocin] , pKi read as < 4.00
